Cited source: ChEMBL document CHEMBL1909046

# protocol notes: DRUGMATRIX: beta-Lactamase enzyme inhibition (substrate: Nitrocefin)
# Parameters: species or system Bacillus cereus
# condition details: Not Active = under 50% inhibition at 10 µM
measure name: Ki

Noted for CCOC(=O)C1=C(C)NC(C)=C(C(=O)OCC)C1c1ccccc1/C=C/C(=O)OC(C)(C)C : its Ki reads Not Active

Noted for O=C(O)CNCP(=O)(O)O [GLYPHOSATE] : its Ki reads Not Active

Noted for CC#C[C@]1(O)CC[C@H]2[C@@H]3CCC4=CC(=O)CCC4=C3[C@@H](c3ccc(N(C)C)cc3)C[C@@]21C : its Ki reads Not Active

Noted for CCOc1cc(N)c(Cl)cc1C(=O)NCC1CN(Cc2ccc(F)cc2)CCO1 (centres undefined) [MOSAPRIDE] : its Ki reads Not Active

---

# protocol notes: DRUGMATRIX: Nicotinic Acetylcholine radioligand binding (ligand: [125I] Epibatidine)
# Assay type: cell membranes, Membrane
# condition details: imr-32; Not Active = under 50% inhibition at 10 µM; read-out: IC50
measure name: pIC50
Give bare numbers, as −log10 of the molar value.

Noted for C[N+](C)(C)CCOC(N)=O.[Cl-] [CARBACHOL] : its pIC50 reads 6.00

---

# system name: Cholecystokinin receptor type A (Homo sapiens); further: in other assays of this panel Not Active means under 50% inhibition at 10 µM
# Sequence (P32238 whole entry): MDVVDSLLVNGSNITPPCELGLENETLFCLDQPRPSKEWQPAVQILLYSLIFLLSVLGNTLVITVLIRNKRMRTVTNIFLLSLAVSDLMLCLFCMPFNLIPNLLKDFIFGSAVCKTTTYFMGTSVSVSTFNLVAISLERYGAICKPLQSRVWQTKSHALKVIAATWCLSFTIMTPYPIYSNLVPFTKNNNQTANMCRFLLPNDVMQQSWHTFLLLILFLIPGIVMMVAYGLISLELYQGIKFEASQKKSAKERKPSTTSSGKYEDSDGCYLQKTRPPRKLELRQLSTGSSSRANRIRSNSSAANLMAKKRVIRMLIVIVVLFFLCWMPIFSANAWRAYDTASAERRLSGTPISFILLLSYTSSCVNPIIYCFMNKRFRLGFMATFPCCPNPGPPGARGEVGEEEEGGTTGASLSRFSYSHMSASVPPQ
# Assay type: cell membranes, Membrane
# condition details: 1321-n1
measure name: IC50

Past entries and their recorded results:
Noted for Nc1nc(F)nc2c1ncn2[C@@H]1O[C@H](CO)[C@@H](O)[C@@H]1O [FLUDARABINE] : its IC50 reads Not Active

Noted for CC12CCC(CC1=O)C2(C)C (stereo not given) [CAMPHOR] : its IC50 reads Not Active

Noted for O=C(Nc1ccc(Cl)c(Cl)c1)c1cc(Cl)cc(Cl)c1O [3,3',4',5-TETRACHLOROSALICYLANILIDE] : its IC50 reads Not Active

Noted for COC(=O)Nc1nc2ccc(C(=O)c3ccccc3)cc2[nH]1 [MEBENDAZOLE] : its IC50 reads Not Active

Noted for CC(C)Cc1ccc([C@H](C)C(=O)O)cc1 [DEXIBUPROFEN] : its IC50 reads Not Active

I would be grateful if you could provide IC50 for each of the following entries.
1. O=C(O)COC(=O)Cc1ccccc1Nc1c(Cl)cccc1Cl [ACECLOFENAC]
2. O=C(O)CCc1nc(-c2ccccc2)c(-c2ccccc2)o1 [OXAPROZIN]
3. Oc1ccc(/C=C/c2cc(O)cc(O)c2)cc1 [RESVERATROL]
4. O=[As][O-].[Na+] [SODIUM ARSENITE]
5. COc1cc(/C=C/C(=O)O)ccc1O [FERULATE]

Result:
1: Not Active; 2: Not Active; 3: Not Active; 4: Not Active; 5: Not Active

---

# system name: 3-hydroxy-3-methylglutaryl-coenzyme A reductase (Homo sapiens, UniProt P04035);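 further: enzyme inhibition assay of HMG-CoA reductase using radiolabeled [14C]HMG-CoA as substrate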; further: in other assays of this panel Not Active means under 50% inhibition at 10 µM
# Sequence (P04035 whole entry): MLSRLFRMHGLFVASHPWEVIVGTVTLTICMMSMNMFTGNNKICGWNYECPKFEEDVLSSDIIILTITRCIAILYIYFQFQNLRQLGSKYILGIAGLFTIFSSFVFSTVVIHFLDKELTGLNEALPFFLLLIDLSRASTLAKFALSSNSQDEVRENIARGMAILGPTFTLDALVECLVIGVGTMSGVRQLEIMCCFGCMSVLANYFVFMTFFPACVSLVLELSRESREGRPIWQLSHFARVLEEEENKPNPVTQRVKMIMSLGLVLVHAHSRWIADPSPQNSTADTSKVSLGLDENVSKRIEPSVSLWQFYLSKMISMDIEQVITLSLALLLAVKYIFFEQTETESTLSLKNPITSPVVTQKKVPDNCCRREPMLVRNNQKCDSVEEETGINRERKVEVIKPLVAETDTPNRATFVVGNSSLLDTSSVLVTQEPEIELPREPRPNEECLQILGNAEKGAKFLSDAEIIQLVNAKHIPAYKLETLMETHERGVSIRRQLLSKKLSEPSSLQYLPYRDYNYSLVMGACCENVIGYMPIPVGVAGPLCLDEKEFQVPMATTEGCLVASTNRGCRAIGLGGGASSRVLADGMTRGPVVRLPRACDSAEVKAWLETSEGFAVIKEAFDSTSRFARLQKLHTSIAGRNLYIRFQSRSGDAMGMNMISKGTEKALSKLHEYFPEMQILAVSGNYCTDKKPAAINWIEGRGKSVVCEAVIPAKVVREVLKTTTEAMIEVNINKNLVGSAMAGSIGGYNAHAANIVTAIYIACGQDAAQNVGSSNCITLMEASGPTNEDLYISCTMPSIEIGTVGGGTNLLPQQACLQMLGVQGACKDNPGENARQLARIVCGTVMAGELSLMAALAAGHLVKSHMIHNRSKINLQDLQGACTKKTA
# Design: species or system Escherichia coli
measure name: IC50

Noted for Cc1nnc(NS(=O)(=O)c2ccc(N)cc2)s1 [SULFAMETHIZOLE] : its IC50 reads Not Active

Noted for CC(CN1c2ccccc2Sc2ccccc21)N(C)C (stereo not drawn) [PROMETHAZINE] : its IC50 reads Not Active

Noted for CCOc1cc(N)c(Cl)cc1C(=O)NCC1CN(Cc2ccc(F)cc2)CCO1 (stereo not drawn) [MOSAPRIDE] : its IC50 reads Not Active

Noted for CN(C)CCC=C1c2ccccc2COc2ccccc21 [DOXEPIN] : its IC50 reads Not Active

Noted for C=CCN1CC[C@]23c4c5ccc(O)c4O[C@H]2/C(=N/N=C2\CC[C@@]4(O)[C@H]6Cc7ccc(O)c8c7[C@@]4(CCN6CC=C)[C@H]2O8)CC[C@@]3(O)[C@H]1C5 [NALOXONAZINE] : its IC50 reads Not Active

Noted for O=C(O)c1ccccc1 [BENZOIC ACID] : its IC50 reads Not Active

Noted for CCN(CC)N=O [N-NITROSODIETHYLAMINE] : its IC50 reads Not Active

Noted for COc1ccc(C[C@H](N)C(=O)N[C@H]2[C@@H](O)[C@H](n3cnc4c(N(C)C)ncnc43)O[C@@H]2CO)cc1 [PUROMYCIN] : its IC50 reads Not Active

I would be grateful if you could provide IC50 for each of the following entries.
1. Cc1cc2c(s1)Nc1ccccc1N=C2N1CCN(C)CC1 [OLANZAPINE]
2. CC1(COc2ccc(CC3SC(=O)NC3=O)cc2)CCCCC1 (stereo not drawn) [CIGLITAZONE]
3. COc1cc(NC(C)CCCN)c2ncccc2c1 (stereo not drawn) [PRIMAQUINE]
4. OC[C@@H](O)[C@@H](O)[C@H](O)[C@H](O)CO [MANNITOL]
5. ClC1=C(Cl)[C@]2(Cl)[C@@H]3[C@@H]4C[C@@H]([C@H]5O[C@@H]45)[C@@H]3[C@@]1(Cl)C2(Cl)Cl [DIELDRIN]

Result:
1: Not Active; 2: Not Active; 3: Not Active; 4: Not Active; 5: Not Active

I would be grateful if you could provide IC50 for each of the following entries.
1. CC(C)(c1ccc(O)cc1)c1ccc(O)cc1 [BISPHENOL A]
2. Cc1[nH]c(=O)c(C#N)cc1-c1ccncc1 [MILRINONE]

Result:
Not Active
Not Active

I would be grateful if you could provide IC50 for each of the following entries.
1. CCN(CC)C(=S)SSC(=S)N(CC)CC
2. NC(N)=Nc1nc(CSCCC(N)=NS(N)(=O)=O)cs1 [FAMOTIDINE]
3. CCCCCCNC(=O)n1cc(F)c(=O)[nH]c1=O [CARMOFUR]
4. C[N+](C)(C)CCOP(=O)([O-])OC[C@H](O)CO
5. O=C1CN(/N=C/c2ccc([N+](=O)[O-])o2)C(=O)N1 [NITROFURANTOIN]
6. CCOC(=O)C1=C(C)NC(C)=C(C(=O)OCC)C1c1ccccc1/C=C/C(=O)OC(C)(C)C [LACIDIPINE]

Result:
["Not Active", "Not Active", "Not Active", "Not Active", "Not Active", "Not Active"]

I would be grateful if you could provide IC50 for each of the following entries.
1. CC[C@@]1(O)C(=O)OCc2c1cc1n(c2=O)Cc2cc3c(CN(C)C)c(O)ccc3nc2-1 [TOPOTECAN]
2. CC12CCC(CC1)C(C)(C)O2 [EUCALYPTOL]
3. C=C(Cl)Cl [1,1-DICHLOROETHENE]
4. NS(=O)(=O)c1cc(C(=O)O)c(NCc2ccco2)cc1Cl [FUROSEMIDE]
5. Cc1cccc(C)c1NC(=O)C(C)N (stereo not drawn) [TOCAINIDE]
6. C1CCN2C[C@@H]3C[C@@H](CN4CCCC[C@@H]34)[C@H]2C1 [SPARTEINE]

Result:
Not Active
Not Active
Not Active
Not Active
Not Active
Not Active

I would be grateful if you could provide IC50 for each of the following entries.
1. Nc1ccc(C(=O)O)c(O)c1 [AMINOSALICYLIC ACID]
2. CCC1(c2ccccc2)C(=O)NC(=O)NC1=O [PHENOBARBITAL]

Result:
1. Not Active
2. Not Active

I would be grateful if you could provide IC50 for each of the following entries.
1. c1ccc2c(c1)Nc1ccccc1S2 [PHENOTHIAZINE]
2. C[C@H](C(=O)O)c1ccc2oc(-c3ccc(F)cc3)nc2c1 [FLUNOXAPROFEN]
3. Cc1ccc(S(=O)(=O)NC(=O)NN2CCCCCC2)cc1 [TOLAZAMIDE]
4. CC(C)(C#N)c1cc(Cn2cncn2)cc(C(C)(C)C#N)c1 [ANASTROZOLE]
5. O=C1c2ccccc2C(=O)C1c1ccccc1 [PHENINDIONE]
6. CC(C)(C)NC[C@H](O)COc1cccc2c1CCCC2=O [LEVOBUNOLOL]

Result:
1. Not Active
2. Not Active
3. Not Active
4. Not Active
5. Not Active
6. Not Active

I would be grateful if you could provide IC50 for each of the following entries.
1. C=CCO [ALLYL ALCOHOL]
2. CC[C@H]1OC(=O)[C@H](C)[C@@H](O[C@H]2C[C@@](C)(OC)[C@@H](O)[C@H](C)O2)[C@H](C)[C@@H](O[C@@H]2O[C@H](C)C[C@H](N(C)C)[C@H]2O)[C@](C)(O)C[C@@H](C)C(=O)[C@H](C)[C@@H](O)[C@]1(C)O [ERYTHROMYCIN]
3. O=C(O)CCc1nc(-c2ccccc2)c(-c2ccccc2)o1 [OXAPROZIN]

Result:
["Not Active", "Not Active", "Not Active"]
